Please respond with reported composite z-score for every item in the list.
Tgt: Calmodulin-1 (Homo sapiens)
Experiment Description: small molecules binding Ca-loaded calmodulin-1 – biochemical, small-molecule microarray, Cy5-labelled CALM1, plus calcium, artefact control for SMM control-protein annotation, profiling panel (AID 1112);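 further: score merges spot fluorescence with signal to noise from triplicate slides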
Condition Parameters: Cy5-CALM1 binding fluorescence, higher = more signal
Give bare numbers.

Answered cases to consult:
Molecule: C[N+](C)(C)CCCC[C@@H]1NC(=O)[C@@H]2C[C@H](C(=O)NCCCCCCNC(=O)CS)[C@H](c3ccc(O)cc3)N2C1=O
Property Name: composite z-score
Obs Value: -0.281
//
Molecule: CN1C(=O)C2C=CC(C(O)c3ccccc3)N(N3CCCCC3)C2C1=O (stereo not given)
Property Name: composite z-score
Obs Value: -0.102
//
Molecule: C=CC1c2cc(O)c(OC)cc2CCN1Cc1cccc(OC(F)(F)F)c1 (stereo not given)
Property Name: composite z-score
Obs Value: -0.566
//
Molecule: COCC(=C=CC[C@H](O)c1cccc(OCCO)c1)C[C@H](O)c1cc(Cl)cc(Cl)c1O
Property Name: composite z-score
Obs Value: -0.821

Turning now to a further molecule:
composite z-score recorded for this molecule, "CC(C)CNC(=O)[C@@]1(Cc2ccccc2I)c2ccccc2C(=O)N(Cc2ccccc2C(F)(F)F)[C@H]1c1ccc(CO)cc1" , is -0.157

The origin of these recorded values is PubChem BioAssay.
